pIC50 by entry:
Biological target: FLT3 (Homo sapiens)
Sequence (P36888 27-993): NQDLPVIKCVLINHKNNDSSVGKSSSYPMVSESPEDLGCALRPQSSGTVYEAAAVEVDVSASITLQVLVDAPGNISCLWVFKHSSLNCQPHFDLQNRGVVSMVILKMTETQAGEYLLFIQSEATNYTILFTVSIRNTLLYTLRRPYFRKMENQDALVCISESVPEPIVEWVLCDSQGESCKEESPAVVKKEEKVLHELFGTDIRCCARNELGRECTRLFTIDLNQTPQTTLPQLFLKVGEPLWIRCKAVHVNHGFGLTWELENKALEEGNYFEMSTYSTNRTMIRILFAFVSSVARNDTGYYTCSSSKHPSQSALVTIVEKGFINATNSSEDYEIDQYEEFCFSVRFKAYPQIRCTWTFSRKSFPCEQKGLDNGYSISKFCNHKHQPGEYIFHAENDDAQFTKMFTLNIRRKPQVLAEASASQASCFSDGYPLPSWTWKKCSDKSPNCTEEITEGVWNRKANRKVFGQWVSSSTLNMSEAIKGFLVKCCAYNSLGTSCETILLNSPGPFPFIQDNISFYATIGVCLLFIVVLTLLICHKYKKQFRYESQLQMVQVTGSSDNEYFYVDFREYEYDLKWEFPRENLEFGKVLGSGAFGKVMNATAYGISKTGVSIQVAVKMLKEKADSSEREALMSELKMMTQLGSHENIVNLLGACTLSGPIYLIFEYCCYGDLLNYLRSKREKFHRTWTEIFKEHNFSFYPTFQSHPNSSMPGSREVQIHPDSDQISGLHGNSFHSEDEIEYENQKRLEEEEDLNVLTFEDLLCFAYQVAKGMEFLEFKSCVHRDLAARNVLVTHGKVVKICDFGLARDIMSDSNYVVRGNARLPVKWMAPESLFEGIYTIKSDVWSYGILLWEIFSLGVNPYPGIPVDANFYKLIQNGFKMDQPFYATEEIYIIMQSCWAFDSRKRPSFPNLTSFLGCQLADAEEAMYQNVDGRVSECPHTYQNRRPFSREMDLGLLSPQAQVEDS
pIC50: −log10 of the molar value.

[
  {
    "compound": "CCCC(C)Nc1ncc2c(OC3CCN(CCC(=O)N(C)C)CC3)ncc([C@H]3CC[C@H](O)CC3)c2n1 (some centres unmarked)",
    "experimental target": "FLT3 (Homo sapiens)",
    "pIC50": "5.00 to 6.00"
  },
  {
    "compound": "COCCN1C(C)(C)CC(Oc2ncc([C@H]3CC[C@H](O)CC3)c3nc(N[C@@H](C)CC#N)ncc23)CC1(C)C",
    "experimental target": "FLT3 (Homo sapiens)",
    "pIC50": "5.00 to 6.00"
  },
  {
    "compound": "O[C@H]1CC[C@H](c2cnc(OC3CCNCC3)c3cnc(NC4CCCCC4)nc32)CC1",
    "experimental target": "FLT3 (Homo sapiens)",
    "pIC50": "6.00 to 7.00"
  },
  {
    "compound": "C[C@@H](CC(F)(F)F)Nc1ncc2c(O[C@H]3C[C@@](C)(O)C3)ncc([C@H]3CC[C@H](O)CC3)c2n1",
    "experimental target": "FLT3 (Homo sapiens)",
    "pIC50": "6.00 to 7.00"
  },
  {
    "compound": "CCCC(C)Nc1ncc2c(=O)n(C3CCN(C4COC4)CC3)cc([C@H]3CC[C@H](O)CC3)c2n1 (some centres unmarked)",
    "experimental target": "FLT3 (Homo sapiens)",
    "pIC50": "5.00 to 6.00"
  },
  {
    "compound": "CCCC(C)Nc1ncc2c(=O)n(CCN(C)C)cc([C@H]3CC[C@H](O)CC3)c2n1 (some centres unmarked)",
    "experimental target": "FLT3 (Homo sapiens)",
    "pIC50": "5.00 to 6.00"
  },
  {
    "compound": "CC[C@H](C)Nc1ncc2c(OC3CCN(S(C)(=O)=O)CC3)ncc([C@H]3CC[C@H](O)CC3)c2n1",
    "experimental target": "FLT3 (Homo sapiens)",
    "pIC50": "6.00 to 7.00"
  },
  {
    "compound": "COC[C@H](C)Nc1ncc2c(Nc3cccnc3)ncc([C@H]3CC[C@H](O)CC3)c2n1",
    "experimental target": "FLT3 (Homo sapiens)",
    "pIC50": "5.00 to 6.00"
  },
  {
    "compound": "COC[C@H](C)Nc1ncc2c(Nc3ccnc(C)c3)ncc([C@H]3CC[C@H](O)CC3)c2n1",
    "experimental target": "FLT3 (Homo sapiens)",
    "pIC50": "5.00 to 6.00"
  },
  {
    "compound": "C[C@@H](CC(F)(F)F)Nc1ncc2c(OC3CCOCC3)ncc([C@H]3CC[C@H](O)CC3)c2n1",
    "experimental target": "FLT3 (Homo sapiens)",
    "pIC50": "6.00 to 7.00"
  },
  {
    "compound": "COC[C@H](C)Nc1ncc2c(O[C@@H]3CCN(C)C(C)(C)C3)ncc([C@H]3CC[C@H](O)CC3)c2n1",
    "experimental target": "FLT3 (Homo sapiens)",
    "pIC50": "5.00 to 6.00"
  },
  {
    "compound": "COC[C@H](C)Nc1ncc2c(Nc3ccc(C)nc3)ncc([C@H]3CC[C@H](O)CC3)c2n1",
    "experimental target": "FLT3 (Homo sapiens)",
    "pIC50": "5.00 to 6.00"
  },
  {
    "compound": "C[C@@H](CC(F)(F)F)Nc1ncc2c(O[C@@H]3C[C@H]4CC[C@@H](C3)N4C[C@H]3CCOC3)ncc([C@H]3CC[C@H](O)CC3)c2n1",
    "experimental target": "FLT3 (Homo sapiens)",
    "pIC50": "≥ 7.00"
  },
  {
    "compound": "O[C@H]1CC[C@H](c2cnc(OC3CCOCC3)c3cnc(N[C@H]4CCNC4)nc32)CC1",
    "experimental target": "FLT3 (Homo sapiens)",
    "pIC50": "5.00 to 6.00"
  },
  {
    "compound": "CCCCNc1ncc2c(N(C)C)ncc([C@H]3CC[C@H](O)CC3)c2n1",
    "experimental target": "FLT3 (Homo sapiens)",
    "pIC50": "≥ 7.00"
  },
  {
    "compound": "C[C@@H](CC(F)(F)F)Nc1ncc2c(O[C@@H]3C[C@H]4CC[C@@H](C3)N4[C@H]3CCOC3)ncc([C@H]3CC[C@H](O)CC3)c2n1",
    "experimental target": "FLT3 (Homo sapiens)",
    "pIC50": "≥ 7.00"
  },
  {
    "compound": "CC[C@H](C)Nc1ncc2c(OCC34CCC(O)(CC3)CC4)ncc([C@H]3CC[C@H](O)CC3)c2n1",
    "experimental target": "FLT3 (Homo sapiens)",
    "pIC50": "5.00 to 6.00"
  },
  {
    "compound": "O=C(O)[C@H]1CC[C@H](Nc2ncc3c(OC4CCOCC4)ncc([C@H]4CC[C@H](O)CC4)c3n2)CC1",
    "experimental target": "FLT3 (Homo sapiens)",
    "pIC50": "5.00 to 6.00"
  },
  {
    "compound": "CN1CCC(Nc2ncc3c(OC4CCNCC4)ncc([C@H]4CC[C@H](O)CC4)c3n2)C1=O (some centres unmarked)",
    "experimental target": "FLT3 (Homo sapiens)",
    "pIC50": "5.00 to 6.00"
  },
  {
    "compound": "COC[C@H](C)Nc1ncc2c(OC3CCOCC3)ncc(-c3ccc(N4CCN(C)CC4)cc3)c2n1",
    "experimental target": "FLT3 (Homo sapiens)",
    "pIC50": "5.00 to 6.00"
  },
  {
    "compound": "CC[C@H](C)Nc1ncc2c(=O)n([C@H]3CC[C@H](N)CC3)cc([C@H]3CC[C@H](O)CC3)c2n1",
    "experimental target": "FLT3 (Homo sapiens)",
    "pIC50": "5.00 to 6.00"
  },
  {
    "compound": "COC[C@H](C)Nc1ncc2c(OC3CCOCC3)ncc(-c3ccc(S(C)(=O)=O)cc3)c2n1",
    "experimental target": "FLT3 (Homo sapiens)",
    "pIC50": "5.00 to 6.00"
  },
  {
    "compound": "COC[C@H](C)Nc1ncc2c(OC3CCN(S(C)(=O)=O)CC3)ncc([C@H]3CC[C@H](O)CC3)c2n1",
    "experimental target": "FLT3 (Homo sapiens)",
    "pIC50": "5.00 to 6.00"
  },
  {
    "compound": "CCCC(C)Nc1ncc2c(NC3CCN(C)CC3)ncc([C@H]3CC[C@H](O)CC3)c2n1 (some centres unmarked)",
    "experimental target": "FLT3 (Homo sapiens)",
    "pIC50": "6.00 to 7.00"
  },
  {
    "compound": "CCCC(C)Nc1ncc2c(OCCN(C)C)ncc([C@H]3CC[C@H](O)CC3)c2n1 (some centres unmarked)",
    "experimental target": "FLT3 (Homo sapiens)",
    "pIC50": "5.00 to 6.00"
  },
  {
    "compound": "CO[C@H]1C[C@@H](Oc2ncc([C@H]3CC[C@H](O)CC3)c3nc(N[C@@H](C)CC(F)(F)F)ncc23)C1",
    "experimental target": "FLT3 (Homo sapiens)",
    "pIC50": "6.00 to 7.00"
  },
  {
    "compound": "CCCC(C)Nc1ncc2c(N(C)C3CCNCC3)ncc([C@H]3CC[C@H](O)CC3)c2n1 (some centres unmarked)",
    "experimental target": "FLT3 (Homo sapiens)",
    "pIC50": "5.00 to 6.00"
  },
  {
    "compound": "CCC1(Nc2ncc3c(OC4CCOCC4)ncc([C@H]4CC[C@H](O)CC4)c3n2)CC1",
    "experimental target": "FLT3 (Homo sapiens)",
    "pIC50": "5.00 to 6.00"
  },
  {
    "compound": "O[C@H]1CC[C@H](c2cnc(OC3CCNCC3)c3cnc(NC4CCOCC4)nc32)CC1",
    "experimental target": "FLT3 (Homo sapiens)",
    "pIC50": "6.00 to 7.00"
  }
]

Source: patent US20200291018A1
